Attribute: GI50
System: SF-295 CNS
Protocol Description: NCI tumour cell line growth inhibition, 48 h

Compound	GI50
COc1cc([N+](=O)[O-])cc2c3c(n(C)c12)[C@@]1(C)CCC2c4ccc(OCc5ccccc5)cc4CCC2C1C3 (stereo not given in full)	35 µM
CC(C)(C)OC(=O)N1CCc2c(sc3ncnc(N/N=C/c4cccc5ccccc45)c23)C1	3.72 µM
COc1cc(C2=C(c3ccccc3)COC2=O)cc(OC)c1OC	0.324 µM
CCOC(=O)[C]1([Bi]([CH3])[CH3])N=NC(C(=O)OC)=C1C(=O)OC (stereo not given)	> 100 µM
CN1CCN(C(=O)OCc2nc3c(N4CCOCC4)nc(Cl)nc3n2C)CC1	8.35 µM

----------
Test system: UACC-62 melanoma
Protocol Description: NCI tumour cell line growth inhibition, 48 h
Attribute: TGI
Endpoint Name: TGI

Compound	Measurement Target	Recorded Value
COc1cc(CN2CCCCC2)cc2cc(C(=O)O)c(=O)oc12	UACC-62 melanoma	> 100 µM
COc1ccc(C2=CC3CCC2C3)cc1 (stereo not drawn)	UACC-62 melanoma	> 100 µM
CSc1nc2c(c(=O)n1C)N=C(c1ccccc1)[C@H](C(CC(=O)c1ccccc1)c1ccccc1)C(c1ccccc1)N2 (stereo partly drawn)	UACC-62 melanoma	> 100 µM
COc1ccc(-c2cc(=O)c3c(OC)c(OC)c(OC)cc3o2)cc1	UACC-62 melanoma	> 100 µM
C=c1c(OC)c(OC)c(O)c2c1=c1cc([N+](=O)[O-])cc(OC)c1=N2	UACC-62 melanoma	> 100 µM
CCOC(=O)/C(C#N)=N\Nc1ccc(-n2c(C)nc3ccccc3c2=O)cc1	UACC-62 melanoma	> 100 µM
COc1ccc2cc(NC(=O)N/N=C\c3ccc(Cl)cc3)ccc2c1	UACC-62 melanoma	> 100 µM
COC(=O)c1c/c(=N\NC(=O)CC(=O)Nc2ccccc2OC)c2ccccc2o1	UACC-62 melanoma	> 100 µM
Oc1ccc(NCc2nc3ccccc3[nH]2)cc1	UACC-62 melanoma	> 100 µM
NC(=O)c1cc2ccccc2o/c1=N/O	UACC-62 melanoma	> 100 µM
CN(C)S(=O)(=O)Nc1nnc(S(N)(=O)=O)s1	UACC-62 melanoma	> 100 µM
Cc1cccc(C)c1NC(=O)C(=O)C1C(=O)NC(=O)NC1=O	UACC-62 melanoma	> 100 µM
[Cl-].[Dy+3].[O-]/N=C(\c1ccccc1)c1ccccn1.[O-]/N=C(\c1ccccc1)c1ccccn1.[O-]/N=C(\c1ccccc1)c1ccccn1	UACC-62 melanoma	> 100 µM
C=CCCCCCCCCC(=O)[O][Sn]([CH2]CCC)([CH2]CCC)[CH2]CCC	UACC-62 melanoma	0.349 µM
O=C1NC2OC(CO)C(O)C(O1)C2O (stereo not drawn)	UACC-62 melanoma	> 100 µM
CN1CCN(C(=O)OCc2nc3c(N4CCOCC4)nc(Cl)nc3n2C)CC1	UACC-62 melanoma	2.8 µM
COc1ccc(Nc2nc3c([nH]2)c(=O)n(C)c(=O)n3C)cc1	UACC-62 melanoma	> 10 µM
CCC(C)c1c(Cl)nc(Cl)nc1Cl (stereo not drawn)	UACC-62 melanoma	52.8 µM
CCCCN=C(NC#N)NCCCC	UACC-62 melanoma	> 100 µM
CN1CCN(C)C12C=c1ccccc1=CC21CC1	UACC-62 melanoma	34 µM
COc1ccc(/C(COc2c(-c3ccccc3)oc3ccccc3c2=O)=N\O)cc1	UACC-62 melanoma	43.5 µM
O=c1c2cc([N+](=O)[O-])ccc2sc2ccsc12	UACC-62 melanoma	> 100 µM
Cc1cn(C(C)OCCN2C(=O)c3ccccc3C2=O)c(=O)[nH]c1=O (stereo not drawn)	UACC-62 melanoma	> 100 µM
